System tested: human Claudin-6 (CLDN6) (human) (UniProt P56747)
Experimental protocol: FACS, limiting dilution, ARK2 cells
Result type: FACS signal at 40 nM

• AB3-7 (antibody, V domains shown, humanized; also called AB23; humanized AB3-7) VH: EVQLLESGGGLVQPGGSMRLSCAASGFTFSNYWMNWVRQAPGKGLEWVAQIRLKSDNYATHYADSVKGRFTISRDDSKNTVYLQMNSLRAEDTGVYYCNDGPPSGSWGQGTLLTVSS VL: DIQMTQSPSSLSASVGDRVTITCRISENIYSYLAWYQQKPGKAPKLLVYNAKILVEGVPSRFSGSGSGTDFTLTISSLQPEDFGTYYCQHHYTVPWTFGQGTKLEIK = 1640
• AB S5 (antibody, V domains shown) VH: EVQLLESGGGLVQPGGSMRLSCAASGFTFSNYWMNWVRQAPGKGLEWLAQIRLKSDNYATHYTDSVKGRFTISRDDSKRTVYLQMNSLRAEDTGIYYCSDGPPSGSWGQGTLLTVSS VL: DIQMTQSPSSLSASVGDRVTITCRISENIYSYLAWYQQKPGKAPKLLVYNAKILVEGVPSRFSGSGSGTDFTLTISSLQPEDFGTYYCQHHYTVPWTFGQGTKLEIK = 25600
• AB S12 (antibody, V domains shown) VH: QVQLVQSGAEVKKPGASVKMSCKASGYTFTTYTMHWVRQAPGQGLEWIGFINPSSGYTEYAQKFQGRVTLTADKSTSTVYMELSSLRSEDTAVYFCANGDYYVGYWGQGTLVTVSS VL: DIQLTQSPSSLSASVGDRVTMTCTASSSVSSTYFHWYQQKPGKAPKLWIYSTSNLASGVPSRFSGSGSGTDYTLTISSMQPEDAATYYCHQYHRSPLTFGQGTKLEIK = 22900
• AB S6 (antibody, V domains shown) VH: EVQLLESGGGLVQPGGSMRLSCAASGFTFSNYWMNWVRQAPGKGLEWLAQIRLKSDNYVTHYADSVKGRFTISRDDSKRTVYLQMNSLRAEDTGTYYCNDGPPSGSWGQGTLLTVSS VL: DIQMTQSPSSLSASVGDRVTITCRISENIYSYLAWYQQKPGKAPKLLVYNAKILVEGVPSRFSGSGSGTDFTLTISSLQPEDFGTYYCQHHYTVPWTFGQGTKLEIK = 14600
• AB S7 (antibody, V domains shown) VH: QVQLVQSGAEVKKPGASVKMSCKASGYTFTTYTIHWVRQAPGQGLEWIGFINPSSGYTEYAQKFQGRVTLTADKSTSTVYMELSSLRSEDTAVYFCANGDYYVAYWGQGTLVTVSS VL: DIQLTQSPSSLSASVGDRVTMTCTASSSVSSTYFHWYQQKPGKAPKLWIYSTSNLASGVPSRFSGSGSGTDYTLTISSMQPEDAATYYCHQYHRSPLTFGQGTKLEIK = 16000
• AB S1 (antibody, V domains shown) VH: EVQLLESGGGLVQPGGSMRLSCAASGFTFSNYWMNWVRQAPGKGLEWIAQIRLKSDNYATHYTDSVKGRFTISRDDSKRTVYLQMNSLRAEDTGTYYCSDGPPSGSWGQGTLLTVSS VL: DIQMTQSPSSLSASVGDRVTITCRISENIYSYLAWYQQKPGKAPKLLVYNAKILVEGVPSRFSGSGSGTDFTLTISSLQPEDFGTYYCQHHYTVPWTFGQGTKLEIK = 25800
• AB S10 (antibody, V domains shown) VH: QVQLVQSGAEVKKPGASVKMSCKASGYTFTTYTMHWVRQAPGQGLEWIGFINPSSGYTEYAQKFQGRVTLTADKSTSTVYMELSSLRSEDTAVYYCANGDYYVGYWGQGTLVTVSS VL: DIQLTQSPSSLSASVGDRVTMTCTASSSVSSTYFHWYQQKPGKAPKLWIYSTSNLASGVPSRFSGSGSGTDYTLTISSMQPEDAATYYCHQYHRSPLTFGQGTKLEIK = 68200
